List of EC10 Bladder size Decrease values.
System: Danio rerio embryo
Test: EC10 Bladder size_Decrease; higher = less potent
Conditions: exposure time: 4 dpf

{"columns": ["compound", "unit.string", "EC10 Bladder size Decrease"],
 "data": [
  ["O=C(O)CCc1nc(-c2ccccc2)c(-c2ccccc2)o1", "µM", 11.5],
  ["Cc1cc2c(s1)Nc1ccccc1N=C2N1CCN(C)CC1", "µM", 7.17],
  ["CC1(C)O[C@@H]2[C@@H](CO[C@@]3(COS(N)(=O)=O)OC(C)(C)O[C@@H]23)O1 [Topiramate]", "µM", 28.2],
  ["CC(C)(C)C(O)C(Oc1ccc(Cl)cc1)n1cncn1 (stereo not given)", "µM", 19.9],
  ["COC(=O)Nc1nc2ccccc2[nH]1", "µM", 0.977]
]}

This collection of values is drawn from the supplement of paper PMC9013687.
